Source listed as paper PMC10650714.

Counter-ions that a name gives are not always drawn.
Would you mind telling me the reported melting point of each entry?

For reference, reported melting point for COc1cc(/C=C/C(=O)Nc2ccc(CC3SC(=O)NC3=O)cc2)ccc1O (centres unmarked) stands at 151 to 152 °C

Lab note: COC(=O)/C=C/C(=O)Oc1ccc(CC2SC(=O)NC2=O)cc1 (centres unmarked) (as salt: fumarate) gave melting point of 150 to 151 °C

// O=C(/C=C/c1ccc(O)c(O)c1)Nc1ccc(CC2SC(=O)NC2=O)cc1 (centres unmarked) : melting point value = 148 to 149 °C

Sample O=C(/C=C/c1ccc(O)c(O)c1)Oc1ccc(CC2SC(=O)NC2=O)cc1 (centres unmarked) ; melting point observed: 150 to 151 °C

The value of melting point measured for the molecule COc1cc(/C=C/C(=O)Oc2ccc(CC3SC(=O)NC3=O)cc2)ccc1O (centres unmarked) turned out to be 155 to 156 °C
